# Test system: P12-Ichikawa
# Test description: cell viability relative to DMSO control; higher = less cytotoxic
# Condition details: HPLM + 10% dialyzed FBS; 48 h; 15.4 µM
Readout kind: cell viability (%)
# value in %; strip the unit string

COCC(=O)NC/C=C/c1ccc2ncnc(Nc3ccc(Oc4ccc(C)nc4)c(C)c3)c2c1    93.1

Bench note: what cell viability did Clc1ccc(C(c2ccccc2Cl)C(Cl)Cl)cc1 (stereo not given) show?
95.4

====

As shown below, each of these molecules has a reported cell viability value.
# System: SEM cells
# Test description: cell viability relative to DMSO control; higher = less cytotoxic
# Condition details: RPMI 5 mM glucose + 10% dialyzed FBS; 48 h; 0.0211 µM
# value in %; strip the unit string

Use the examples below as a reference point.
N#Cc1cc(NC(=O)Nc2nnc(-c3ccncc3)s2)ccc1-c1cn[nH]c1    107
CC(C)[C@H]1C(=O)N[C@H](CO)Cc2c[nH]c3cccc(c23)N1C    114
OC[C@H]1OC(O)C[C@@H](O)[C@@H]1O (stereo not given in full)    104
C=C1CCC2[C@](C)(CO)C(O)CC[C@]2(C)C1C/C=C1/C(=O)OCC1O (stereo not given in full)    115
Cc1ccc(C(=O)Nc2ccc([S+](=O)([O-])O)c3cc([S+](=O)([O-])O)cc([S+](=O)([O-])O)c23)cc1NC(=O)c1cccc(NC(=O)Nc2cccc(C(=O)Nc3cc(C(=O)Nc4ccc([S+](=O)([O-])O)c5cc([S+](=O)([O-])O)cc([S+](=O)([O-])O)c45)ccc3C)c2)c1    88.6

Now for another entry.
Bench note: what cell viability did C[S+](=O)([O-])N1CCN(Cc2cc3nc(-c4cccc5[nH]ncc45)nc(N4CCOCC4)c3s2)CC1 show?
127

====

# System: P12-Ichikawa
# Test description: cell viability relative to DMSO control; higher = less cytotoxic
# Condition details: RPMI 5 mM glucose + 10% FBS; 48 h; 15.4 µM
Readout kind: cell viability (%)
# value in %; strip the unit string

So what cell viability did CCC(=O)NC[C@H](Cc1ccc(OCCc2nc(-c3ccccc3)oc2C)cc1)N/C(C)=C\C(=O)c1ccc(C(F)(F)F)cc1 get with P12-Ichikawa?
50.4

====

As shown below, each of these compounds has a reported cell viability value.
# Tested on: SEM cells
# Test description: cell viability relative to DMSO control; higher = less cytotoxic
# Condition details: RPMI 5 mM glucose + 10% FBS; 48 h; 0.569 µM
# value in %; strip the unit string

Bench note: what cell viability did Cc1nc2ccc(CN(C)c3ccc(C(=O)N[C@@H](CCC(=O)O)C(=O)O)s3)cc2c(=O)[nH]1 show?
93

Now consider C[C@]12CC[C@H]3[C@@H](CC[C@@]45O[C@@H]4C(O)=C(C#N)C[C@]35C)[C@@H]1CC[C@@H]2O and answer again.
75.4

Now consider Cc1cc(/C=c2/sc3nc4ccccc4n3c2=O)c(C)n1-c1ccccc1 and answer again.
130

Now consider O=C(NOCC1CC1)c1ccc(F)c(F)c1Nc1ccc(I)cc1Cl and answer again.
106

Now consider CN(C)c1ccc(-c2nc3c(N4CCN(CC(=O)Nc5nccs5)CC4)c(Cl)cnc3[nH]2)cc1 and answer again.
107

Now consider Clc1ccc(CCC(Cn2ccnc2)Sc2c(Cl)cccc2Cl)cc1 (configuration not stated) and answer again.
101

Now consider CCC(=O)O[C@@]1(CC[C@H]2[C@@H]3CCC/4=C/C(=O)CC[C@]4(C)[C@H]3CC[C@]12C)C(=O)CO and answer again.
51

Now consider N#Cc1cc(NC(=O)Nc2nnc(-c3ccncc3)s2)ccc1-c1cn[nH]c1 and answer again.
107

Now consider NCCOc1cc(C(=O)Nc2cc(OCCN)c3ccccc3n2)nc(C(=O)Nc2cc(OCCN)c3ccccc3n2)c1 and answer again.
23.2

Now consider COC(=O)CCC1=C(C)C2=CC3=NC(=CC4=C(C)C(=C([NH]4)C=C\5N=C(C=C1[NH]2)\C(=C5C)CCC(O)=O)C=C)\C6=C\C=C(/[C@@H](C(=O)OC)[C@@]36C)C(=O)OC and answer again.
87.7

Now consider O=C1c2ccccc2-c2n[nH]c3cccc1c23 and answer again.
6.25

Now consider CN(CC(=O)N(Cc1ccc(C2CCCCC2)cc1)c1ccc(C(=O)O)c(O)c1)[S+](=O)([O-])c1c(F)c(F)c(F)c(F)c1F and answer again.
103

Now consider CC(=O)N(O)CCCCCNC(=O)CCC(=O)N(O)CCCCCNC(=O)CCC(=O)N(O)CCCCCN.C[S+](=O)([O-])O and answer again.
20.6

Now consider CCCC[S+](=N)([O-])CCC(N)C(=O)O (configuration not stated) and answer again.
128

Now consider CO[C@H]1C[C@@H]2CC[C@@H](C)[C@@](O)(O2)C(=O)C(=O)N2CCCC[C@H]2C(=O)O[C@H]([C@@H](C)C[C@@H]2CC[C@@H](O)[C@H](OC)C2)CC(=O)[C@H](C)/C=C(\C)[C@@H](O)[C@@H](OC)C(=O)[C@H](C)C[C@H](C)/C=C/C=C/C=C/1C and answer again.
75.7

Now consider CCCCCN(C)CCC(O)(P(=O)([O-])O)P(=O)(O)O and answer again.
98.3

Now consider N#Cc1c(N(CC(=O)[O-])CC(=O)[O-])sc(C(=O)[O-])c1CC(=O)[O-].O.O.O.O.O.O.O.[Sr+2].[Sr+2] and answer again.
153

====

# Test system: P12-Ichikawa
# Test description: cell viability relative to DMSO control; higher = less cytotoxic
# Condition details: RPMI 5 mM glucose + 10% FBS; 48 h; 0.19 µM
Readout kind: cell viability (%)
# value in %; strip the unit string

So what cell viability did COc1cccc(OC)c1-c1cc(C(=O)NC2(C(=O)O)C3CC4CC(C3)CC2C4)nn1-c1ccnc2cc(Cl)ccc12 (centres undefined) get with P12-Ichikawa?
99.4

Now consider CCC[C@H](Nc1nc(-c2ccc(NC(=O)NCC)c(OC)c2)ncc1C)c1cccnc1 and answer again.
12.7

Now consider C[C@@H](Cc1cc2c(c(C(N)=O)c1)N(CCCO)CC2)NCCOc1ccccc1OCC(F)(F)F and answer again.
123

Now consider CN(C)c1ccc(-c2nc3c(N4CCN(CC(=O)Nc5nccs5)CC4)c(Cl)cnc3[nH]2)cc1 and answer again.
125

====

# Tested on: NOMO1
# Test description: cell viability relative to DMSO control; higher = less cytotoxic
# Condition details: HPLM + 10% dialyzed FBS; 48 h; 0.569 µM
As shown below, each of these compounds has a reported cell viability value.
# value in %; strip the unit string

Use the examples below as a reference point.
O=C1\C=C(OC2=C(C=CC=C12)C3=CC=CC4=C3SC5=C4C=CC=C5)\N6CCOCC6    135
NC(=O)c1nnn(Cc2cc(Cl)c(C(=O)c3ccc(Cl)cc3)c(Cl)c2)c1N    124

So what cell viability did CNC(=O)c1nn(C)c2c1C(C)(C)Cc1cnc(Nc3ccc(N4CCN(C)CC4)cc3)nc1-2 get with NOMO1?
103

Now consider O=C(O)c1cccnc1 and answer again.
107

Now consider O=C(CCCN1CCC(O)(c2ccc(Cl)cc2)CC1)c1ccc(F)cc1 and answer again.
135

Now consider COc1cccc(N(C)C(=S)Oc2ccc3c(c2)CCCC3)n1 and answer again.
101

Now consider Cn1cnc(N)c2ncnc1-2 and answer again.
139

Now consider Cc1ccc(C(=O)Nc2ccc([S+](=O)([O-])O)c3cc([S+](=O)([O-])O)cc([S+](=O)([O-])O)c23)cc1NC(=O)c1cccc(NC(=O)Nc2cccc(C(=O)Nc3cc(C(=O)Nc4ccc([S+](=O)([O-])O)c5cc([S+](=O)([O-])O)cc([S+](=O)([O-])O)c45)ccc3C)c2)c1 and answer again.
69.3

Now consider Cc1cnc(Nc2cccc(CN3CCOCC3)c2)nc1Nc1cccc([S+](=O)([O-])NC(C)(C)C)c1 and answer again.
104

Now consider CCC(=O)O[C@@]1(CC[C@H]2[C@@H]3CCC/4=C/C(=O)CC[C@]4(C)[C@H]3CC[C@]12C)C(=O)CO and answer again.
106

====

# System: NOMO1
# Test description: cell viability relative to DMSO control; higher = less cytotoxic
# Condition details: RPMI 5 mM glucose + 10% dialyzed FBS; 48 h; 0.0211 µM
Readout kind: cell viability (%)
# value in %; strip the unit string

Use the examples below as a reference point.
CN(C)C(=O)[C@H](O)[C@H](Cc1ccccc1)NC(=O)c1cc2cc(Cl)ccc2[nH]1    109
COC(=O)[C@H](Cc1ccccc1)NC(=O)[C@@H](N)CC(=O)O    112
C[C@@H](Cc1cc2c(c(C(N)=O)c1)N(CCCO)CC2)NCCOc1ccccc1OCC(F)(F)F    104
CCC[C@H](Nc1nc(-c2ccc(NC(=O)NCC)c(OC)c2)ncc1C)c1cccnc1    125
CNC(=O)c1nn(C)c2c1C(C)(C)Cc1cnc(Nc3ccc(N4CCN(C)CC4)cc3)nc1-2    106
O=C(CCCN1CCC(O)(c2ccc(Cl)cc2)CC1)c1ccc(F)cc1    110

Bench note: what cell viability did CCOC(=O)c1c(CSc2ccccc2)n(C)c2cc(Br)c(O)c(CN(C)C)c12 show?
129

Now consider CN(C)CCc1c[nH]c2ccc(Cn3cncn3)cc12 and answer again.
106

Now consider Cn1cnc(N)c2ncnc1-2 and answer again.
130
